Cited source: patent US20230303695A1

Property: kon; scope: individual binders
Target: T1, recombinant human IGSF8 extracellular domain tagged by a human Fc region (IGSF8-hFc) (human, UniProt Q969P0 28-579, biotin label in Examples 17, 18 and 28 (site not given))
T1 construct: also called IGSF8-Fc fusion protein; IGSF8-hFc-biotin; not shown: human Fc region
T1 sequence: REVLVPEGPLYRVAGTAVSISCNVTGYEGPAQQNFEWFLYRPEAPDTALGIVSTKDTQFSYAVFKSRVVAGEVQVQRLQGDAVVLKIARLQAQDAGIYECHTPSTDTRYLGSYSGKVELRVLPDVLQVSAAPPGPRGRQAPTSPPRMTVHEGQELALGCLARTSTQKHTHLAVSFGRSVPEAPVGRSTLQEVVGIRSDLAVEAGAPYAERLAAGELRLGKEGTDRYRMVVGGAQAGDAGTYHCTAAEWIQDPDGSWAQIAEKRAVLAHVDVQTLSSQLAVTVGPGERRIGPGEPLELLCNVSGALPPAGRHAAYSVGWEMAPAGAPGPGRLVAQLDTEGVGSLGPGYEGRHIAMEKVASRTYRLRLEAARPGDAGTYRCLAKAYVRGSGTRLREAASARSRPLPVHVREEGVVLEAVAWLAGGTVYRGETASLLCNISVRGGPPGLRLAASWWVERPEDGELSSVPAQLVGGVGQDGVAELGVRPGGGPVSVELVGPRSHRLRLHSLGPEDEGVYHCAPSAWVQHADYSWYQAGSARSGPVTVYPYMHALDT
Assay: SPR, Ab captured
Reply with the number, then its unit.

Solved cases (7 shown):
L1-07 (antibody, V domains shown) VH: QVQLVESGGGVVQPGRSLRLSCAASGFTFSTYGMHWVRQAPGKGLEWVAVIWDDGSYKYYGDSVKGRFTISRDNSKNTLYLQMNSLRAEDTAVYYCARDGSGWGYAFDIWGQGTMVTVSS VL: DIQLTQSPSSLSASVGDRVTITCQASQDIEWWLNWYQHKPGKAPNPLVFDAANLETGVPPRFSATGSGTDFSLTITSLQPEDFATYYCQQYDSFPYTFGQGTRLDIK: 332000 M⁻¹ s⁻¹
L1-06 (antibody, V domains shown) VH: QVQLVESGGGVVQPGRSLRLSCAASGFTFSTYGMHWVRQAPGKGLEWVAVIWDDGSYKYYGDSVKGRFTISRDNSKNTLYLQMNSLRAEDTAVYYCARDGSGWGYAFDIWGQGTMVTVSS VL: DIQLTQSPSSLSASVGDRVTITCQASQDIGPWLNWYQHKPGKAPNPLVFDAANLETGVPPRFSATGSGTDFSLTITSLQPEDFATYYCQQYDSFPYTFGQGTRLDIK: 453000 M⁻¹ s⁻¹
L2-10 (antibody, V domains shown, also called L2-10-IgG1) VH: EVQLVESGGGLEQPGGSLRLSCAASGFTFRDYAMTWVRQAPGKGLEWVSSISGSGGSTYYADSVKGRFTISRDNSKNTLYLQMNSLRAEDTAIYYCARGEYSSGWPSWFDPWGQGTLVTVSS VL: DIQMTQSPSSLSASVGDRVTITCRASRTVGTFLNWYQQKPGKAPKALILHTSILEGGVPSRFSGSGSGTDFTLTISSLQPEDIATYYCQQSHDVPRTFGQGTKVEIK: 144000 M⁻¹ s⁻¹
L1-09 (antibody, V domains shown) VH: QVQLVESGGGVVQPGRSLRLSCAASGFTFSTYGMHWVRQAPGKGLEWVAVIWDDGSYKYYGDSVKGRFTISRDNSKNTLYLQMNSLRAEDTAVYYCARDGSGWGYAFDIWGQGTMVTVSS VL: DIQLTQSPSSLSASVGDRVTITCQASQDISEYLNWYQHKPGKAPNPLVFARDNLETGVPPRFSATGSGTDFSLTITSLQPEDFATYYCQQYDSFPYTFGQGTRLDIK: 408000 M⁻¹ s⁻¹
L1VH-D53Y (antibody, V domains shown) VH: QVQLVESGGGVVQPGRSLRLSCAASGFTFSTYGMHWVRQAPGKGLEWVAVIWYDGSYKYYGDSVKGRFTISRDNSKNTLYLQMNSLRAEDTAVYYCARDGSGWGYAFDIWGQGTMVTVSS VL: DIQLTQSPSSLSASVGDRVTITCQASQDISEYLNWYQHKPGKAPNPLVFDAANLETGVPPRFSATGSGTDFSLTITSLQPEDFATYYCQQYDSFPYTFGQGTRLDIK: 46100 M⁻¹ s⁻¹
L2VH-S50A (antibody, V domains shown) VH: EVQLVESGGGLEQPGGSLRLSCAGSGFTFRDYAMTWVRQAPGKGLEWVSAISGSGGNTYYADSVKGRFTISRDNSKNTLYLQMNSLRAEDTAIYYCARGEYSSGWPSWFDPWGQGTLVTVSS VL: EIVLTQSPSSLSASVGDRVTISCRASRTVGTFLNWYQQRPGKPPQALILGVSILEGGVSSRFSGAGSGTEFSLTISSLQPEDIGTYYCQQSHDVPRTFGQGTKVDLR: 20500 M⁻¹ s⁻¹
L1-12 (antibody, V domains shown) VH: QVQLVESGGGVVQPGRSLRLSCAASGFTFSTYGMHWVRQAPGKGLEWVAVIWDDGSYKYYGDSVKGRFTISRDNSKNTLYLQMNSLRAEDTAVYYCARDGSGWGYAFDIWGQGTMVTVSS VL: DIQLTQSPSSLSASVGDRVTITCQASQDISEYLNWYQHKPGKAPNPLVFGADNLETGVPPRFSATGSGTDFSLTITSLQPEDFATYYCQQYDSFPYTFGQGTRLDIK: 461000 M⁻¹ s⁻¹

Turning to the following binder.
Report kon for L1VH-W52L (antibody, V domains shown, mutant of the L1 antibody) VH: QVQLVESGGGVVQPGRSLRLSCAASGFTFSTYGMHWVRQAPGKGLEWVAVILDDGSYKYYGDSVKGRFTISRDNSKNTLYLQMNSLRAEDTAVYYCARDGSGWGYAFDIWGQGTMVTVSS VL: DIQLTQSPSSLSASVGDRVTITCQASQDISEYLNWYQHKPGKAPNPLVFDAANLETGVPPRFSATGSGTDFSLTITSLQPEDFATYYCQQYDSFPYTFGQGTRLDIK
19300 M⁻¹ s⁻¹
